Tested on: fibrin-induced microglia activation
Experiment: Image-based assay of fibrin-induced microglia activation (HTS and dose response)
Assay type: cell-based, rat
Conditions: Rattus norvegicus, Microglia, primary microglia HTS, fibrin stimulation, compounds at 10 μM; read-out: Fibrin % inhibition
quantity: inhibition at 10 µM (%)
Lab book: enter the figure in %, no units written.

Reference set, count: 4
molecule="Nc1ccncc1 [Dalfampridine]" endpointresult=8
molecule="CC[C@@H](CO)NCCN[C@@H](CC)CO [Ethambutol]" endpointresult=12
molecule="C[C@]12C=CC(=O)C=C1CC[C@@H]1[C@@H]2[C@@H](O)C[C@@]2(C)[C@H]1CC[C@]2(O)C(=O)CO [Prednisolone, reference compound]" endpointresult=97
molecule="Cc1onc(-c2c(Cl)cccc2Cl)c1C(=O)N[C@@H]1C(=O)N2[C@@H]1SC(C)(C)[C@@H]2C(=O)O [Dicloxacillin]" endpointresult=-23

Prompt line: # get_value(readout='inhibition at 10 µM', item= NS(=O)(=O)c1cc2c(cc1Cl)N=C(CSCc1ccccc1)NS2(=O)=O [Benzthiazide] )
Response line: -8

====

Tested on: primary rat microglia
Assay: Cell toxicity (dead cells, size <150 μm2) in coated fibrin (cFib) assay;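 also: share of dead cells sized under 150 µm2 at 10 µM in fibrin-stimulated microglia HTS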
Details: primary microglia HTS, fibrin assay, dead cells (size <150 μm2), compounds at 10 μM
Where a name gives a salt, the structure may show the parent alone.
quantity: Fibrin % cell toxicity (%)
Lab book: enter the figure in %, no units written.

Reference set, count: 3
compound=O=C(O)c1cc(=O)c2c(OCC(O)COc3cccc4oc(C(=O)O)cc(=O)c34)cccc2o1 endpointresult=0
compound="CN[C@@H]1[C@H](O[C@H]2[C@H](O[C@H]3[C@H](O)[C@@H](O)[C@H](NC(=N)N)[C@@H](O)[C@@H]3NC(=N)N)O[C@@H](C)[C@]2(O)CO)O[C@@H](CO)[C@H](O)[C@H]1O [Dihydrostreptomycin Sulfate]" endpointresult=1
compound="CN(CCOc1ccc(NS(C)(=O)=O)cc1)CCc1ccc(NS(C)(=O)=O)cc1 [Dofetilide]" endpointresult=1

Prompt line: Form field - read-out: Fibrin % cell toxicity; system: primary rat microglia; submitted item: CN(C)CCOC(=O)C(c1ccccc1)C1(O)CCCC1 (stereo not shown) [Cyclopentolate]
Response line: 1

Prompt line: Form field - read-out: Fibrin % cell toxicity; system: primary rat microglia; submitted item: CC1(C)C2CCC1(CS(=O)(=O)O)C(=O)C2=Cc1ccc(C=C2C(=O)C3(CS(=O)(=O)O)CCC2C3(C)C)cc1
Response line: 1

Prompt line: Form field - read-out: Fibrin % cell toxicity; system: primary rat microglia; submitted item: CCC(=O)O[C@](Cc1ccccc1)(c1ccccc1)[C@H](C)CN(C)C
Response line: 1

====

Tested on: primary rat microglia
Conditions: rat
Examples of compounds with documented Fibrin % cell toxicity follow.
Express the reported value numerically, then name its unit.

Reference set, count: 4
compound="C[C@]12C=CC(=O)N[C@@H]1CC[C@@H]1[C@@H]2CC[C@]2(C)[C@@H](C(=O)Nc3cc(C(F)(F)F)ccc3C(F)(F)F)CC[C@@H]12 [Dutasteride]" quantity="Fibrin % cell toxicity" endpointresult=1%
compound="C=C(CC)C(=O)c1ccc(OCC(=O)O)c(Cl)c1Cl [Ethacrynic acid, reference compound]" quantity="Fibrin % cell toxicity" endpointresult=2%
compound="CN(C)CCC(c1ccc(Cl)cc1)c1ccccn1 (centres unmarked) [Chlorphenamine]" quantity="Fibrin % cell toxicity" endpointresult=1%
compound="CCCN[C@H]1CCc2nc(N)sc2C1 [Pramipexole]" quantity="Fibrin % cell toxicity" endpointresult=1%

Prompt line: # get_value(readout='Fibrin % cell toxicity', item= O=c1[nH]cc(F)c(=O)[nH]1 [Fluorouracil, reference compound] )
Response line: 1%

Prompt line: # get_value(readout='Fibrin % cell toxicity', item= CN(C)C(=N)N=C(N)N [Metformin] )
Response line: 0%

Prompt line: # get_value(readout='Fibrin % cell toxicity', item= CC(=O)Oc1ccc(C(c2ccc(OC(C)=O)cc2)c2ccccn2)cc1 [Bisacodyl] )
Response line: 0%

Prompt line: # get_value(readout='Fibrin % cell toxicity', item= CC(C)(C)NCC(O)c1ccc(O)c(CO)c1 (centres unmarked) [Salbutamol] )
Response line: 1%
